# reported IC50; entries follow
# system: SceCet1 (Saccharomyces cerevisiae)
# Construct: C-terminal catalytic domain (aa 241 to 539) of S. cerevisiae RTPase (SceCet1); made in house; host or cells: Escherichia coli
# Sequence (O13297 241-539): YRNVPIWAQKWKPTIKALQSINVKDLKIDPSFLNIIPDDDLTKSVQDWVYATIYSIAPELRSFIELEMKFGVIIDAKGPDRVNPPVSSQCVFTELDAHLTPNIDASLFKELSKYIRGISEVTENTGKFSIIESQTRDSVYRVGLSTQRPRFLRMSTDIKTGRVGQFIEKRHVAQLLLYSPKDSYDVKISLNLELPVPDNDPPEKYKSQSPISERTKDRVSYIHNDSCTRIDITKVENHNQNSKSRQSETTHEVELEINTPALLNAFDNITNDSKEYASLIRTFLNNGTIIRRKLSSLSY
# assayProcedure: TLC assay for 32Pi release from [γ-32P]ATP, SceCet1
# Type: biochemical
Please state the figure in µM; there is no need to write the unit.

Consider the following illustrative entries.
* CC(=O)O[C@@]12C[C@@H](OC(=O)/C=C/c3ccc(O)c(O)c3)[C@@H](OC(=O)/C=C/c3ccc(O)c(O)c3)[C@@H](C1)OC2=O [Compound 6C, 1-acetyl,4,5-dicaffeoylquinide] | 14
* O=C(O[C@@H]1C[C@@](O)(C(=O)O)C[C@@H](O)[C@@H]1O)c1cc(O)c(O)c(O)c1 [Compound 1O, 5-galloylquinic acid] | 10

Let's switch to this compound now.
**Q:** Give SceCet1 (Saccharomyces cerevisiae) IC50 for the following compound: O=C(O)C1OC(Oc2c(-c3ccc(O)c(O)c3)oc3cc(O)cc(O)c3c2=O)C(O)C(O)C1O (stereo not drawn) [Compound 4A, miquelianin]
**A:** 43
